In this section, each of the compounds is paired with its reported pEC50.
tested on: Plasmodium falciparum; assay: NOVARTIS: Inhibition of Plasmodium falciparum 3D7 (drug-susceptible) proliferation in erythrocyte-based infection assay; type: functional, organism-based; conditions: Plasmodium falciparum, 3D7
pEC50: −log10 of the molar value.

Observe how each entry below is paired with its result.
- compound: "Cc1ccc(N2C(=O)CC(NCCCN3CCOCC3)C2=O)cc1 (stereo not given)"
  pEC50: "< 5.89"
- compound: "Cc1ccc(-c2nnc(SCCCC(=O)NC(Cc3ccccc3)c3ccccc3)n2-c2cccc(Cl)c2)cc1 (stereo not given)"
  pEC50: "< 4.90"
- compound: "Cc1ccc(C)c(N2C(=O)CC(Cc3ccc(Cl)cc3)C2=O)c1 (stereo not given)"
  pEC50: "< 5.90"

Ask | Plasmodium falciparum / pEC50 / COc1ccc([N+](=O)[O-])cc1-c1ccc(C=C(C#N)c2nn(CCO)c(N)c2C#N)o1 : value?
Reply | < 4.90

Ask | Plasmodium falciparum / pEC50 / COc1ccc(/C=C2\N=C(c3ccc(Cl)cc3)N(c3cc(Cl)ccc3C)C2=O)cc1OC : value?
Reply | < 5.90

---

In this section, each of the compounds is paired with its reported CC50.
experiment: NOVARTIS: Cytotoxicity against human hepatocellular carcinoma cell line (Huh7); format: toxicity, cell-based, Huh-7; settings: Huh7 cells (hepatocellular carcinoma cell line)

Observe how each entry below is paired with its result.
- compound: "N=c1n(CCN2CCCCC2)c2ccccc2n1CC(O)COc1ccc(Cl)cc1 (stereo not given)"
  result: "6.27 µM"
- compound: "CCOC(=O)CCCCC(=O)c1[nH]c(=O)[nH]c1Cn1ccnc1"
  result: "> 100 µM"
- compound: "COc1cc(C=NNC(=O)c2cccc3ccccc23)ccc1OCC(N)=O"
  result: "> 10 µM"

Ask | Give the measured CC50 of Cc1ccc(NC(=O)c2c(I)cnn2C)cc1[N+](=O)[O-] .
Reply | > 100 µM

Ask | Give the measured CC50 of c1ccc(-c2nc(Nc3ccncc3)cc(-c3cccnc3)n2)cc1 .
Reply | > 10 µM

Ask | Give the measured CC50 of CCC(C(=O)Nc1sccc1C#N)c1ccccc1 (stereo not given) .
Reply | > 10 µM

Ask | Give the measured CC50 of CCOC(=O)NN=CC=NNC(=O)OCC .
Reply | > 10 µM

---

In this section, each of the molecules is paired with its reported CC50.
experiment: NOVARTIS: Cytotoxicity against human hepatocellular carcinoma cell line (Huh7); assay type: toxicity, cell-based, Huh-7; conditions: Huh7 cells (hepatocellular carcinoma cell line)

Ask | Give the measured CC50 of COC(=O)C1=CNC=C(C(=O)OC)C1c1cc(OC)c(OC)c(OC)c1 .
Reply | > 100 µM

---

tested on: Plasmodium falciparum; experiment: NOVARTIS: Inhibition of Plasmodium falciparum W2 (drug-resistant) proliferation in erythrocyte-based infection assay; format: functional, organism-based; settings: Plasmodium falciparum, W2; read-out: EC50
measurement_label: EC50

Observe how each entry below is paired with its result.
- compound: "CN1CCC(N[C@@H]2C[C@@H](C(=O)N3CCN(c4cccc(C(F)(F)F)c4)CC3)N(Cc3ccccc3Cl)C2)CC1"
  result: "> 1170 nM"
- compound: "CC(C)CNc1nc(NCCC2CCCN2C)ncc1C(=O)NCc1ccccc1 (centres undefined)"
  result: "> 1250 nM"
- compound: "O=C(NC(C(=O)c1ccccc1)N1CCCCC1)c1ccco1 (centres undefined)"
  result: "> 1760 nM"

Alright, here's another compound for you.
Ask | Give the measured EC50 of NC(=O)NN=C1c2cc(S(=O)(=O)NCc3ccco3)ccc2-c2ccc(S(=O)(=O)NCc3ccco3)cc21 .
Reply | > 1540 nM
